# Tgt: Pantothenate synthetase (Mycobacterium tuberculosis (strain ATCC 25618 / H37Rv)) (UniProt P9WIL5)
# Sequence (P9WIL5 whole entry, looked up): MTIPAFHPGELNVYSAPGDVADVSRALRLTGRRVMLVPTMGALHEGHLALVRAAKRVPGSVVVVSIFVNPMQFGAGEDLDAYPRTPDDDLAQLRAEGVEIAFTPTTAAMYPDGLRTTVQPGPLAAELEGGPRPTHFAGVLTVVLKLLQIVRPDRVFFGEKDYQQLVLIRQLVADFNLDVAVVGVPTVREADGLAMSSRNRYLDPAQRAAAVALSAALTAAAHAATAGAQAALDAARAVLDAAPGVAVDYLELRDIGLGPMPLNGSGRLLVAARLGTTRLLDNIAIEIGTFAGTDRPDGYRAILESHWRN
# Protocol notes: Coupled enzyme confirmation of inhibitors against recombinant Mtb PanC (AID 375);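 also: 0% = full reaction with vehicle and 100% = no enzyme background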
# Experimental context: coupled enzyme assay; at 10 µM, active compounds read high
Reported endpoint: inhibition (%)

{"Compound": "CCN(CC)CCN1C(=O)C(=O)/C(=C(/O)c2c(C)[nH]c(C(=O)OC)c2C)C1c1ccco1 (centres undefined)", "Reported endpoint": "inhibition", "Reported": 0}
{"Compound": "COc1ccccc1OCCNC(=O)c1cccs1", "Reported endpoint": "inhibition", "Reported": 0}
{"Compound": "Cn1nc(CC(=O)Nc2ccc(N3CCN(C(=O)OC(C)(C)C)CC3)cc2)c2ccccc2c1=O", "Reported endpoint": "inhibition", "Reported": 0}
{"Compound": "O=C(c1ccco1)N1CCN(c2cccc(Cl)c2)CC1", "Reported endpoint": "inhibition", "Reported": 0}
{"Compound": "Cc1ccc(C)c(N2CCN(Cc3nnnn3C3CCCCC3)CC2)c1", "Reported endpoint": "inhibition", "Reported": 1}
{"Compound": "O=C(Nc1ncnc2sc3c(c12)CCCCC3)c1ccco1", "Reported endpoint": "inhibition", "Reported": 10}
{"Compound": "CCc1ccc(NC(=O)C2CC(=O)N(C(C)C)C2)cc1 (centres undefined)", "Reported endpoint": "inhibition", "Reported": 0}
{"Compound": "CCCn1c(=O)c2ccccc2n2c(SCc3cc(=O)n4ccsc4n3)nnc12", "Reported endpoint": "inhibition", "Reported": 0}
{"Compound": "COc1ccc(S(=O)(=O)N2CCC(C(=O)Nc3c(F)cccc3F)CC2)cc1", "Reported endpoint": "inhibition", "Reported": 2}
{"Compound": "Cc1ccc(C)c(-c2nc3cc(N)ccc3o2)c1", "Reported endpoint": "inhibition", "Reported": 0}
{"Compound": "O=C(c1ccco1)c1nnn(Cc2ccccc2)c1-c1ccccc1", "Reported endpoint": "inhibition", "Reported": 1}
{"Compound": "CCN(CC)c1ccc(NC(=O)CN2CCN(CC(=O)Nc3ccccc3F)CC2)cc1", "Reported endpoint": "inhibition", "Reported": 1}
{"Compound": "O=C(CSc1nnc(CNC(=O)c2cccs2)o1)NCCc1ccccc1", "Reported endpoint": "inhibition", "Reported": 0}
{"Compound": "Cc1cc(C)n2nc(S(=O)(=O)N(C)Cc3ccccc3)nc2n1", "Reported endpoint": "inhibition", "Reported": 0}
{"Compound": "COc1ccc(-n2c(COc3ccccc3)nnc2SCc2ccc(C#N)cc2)cc1", "Reported endpoint": "inhibition", "Reported": 0}
{"Compound": "O=C(NC1CCCC1)C1CCCN(S(=O)(=O)c2cccc3cccnc23)C1 (centres undefined)", "Reported endpoint": "inhibition", "Reported": 2}
{"Compound": "Cc1ccc(CCP(=O)(O)CN2CCOCC2)cn1", "Reported endpoint": "inhibition", "Reported": 0}
{"Compound": "Cn1c(SCC(=O)Nc2cccc3ccccc23)nc(O)cc1=O", "Reported endpoint": "inhibition", "Reported": 0}
{"Compound": "Cc1cc(C)n(-c2nc3nonc3nc2-n2nc(C)cc2C)n1", "Reported endpoint": "inhibition", "Reported": 0}
{"Compound": "COC(=O)C1CCN(C(=O)CSc2nnc(-c3ccncc3)o2)CC1", "Reported endpoint": "inhibition", "Reported": 0}
{"Compound": "Cc1ccc2c(c1)c1c(n2CC(O)Cn2c(C)nc3ccccc32)/C(=N\\O)CCC1 (centres undefined)", "Reported endpoint": "inhibition", "Reported": 5}
{"Compound": "Cc1ccc(S(=O)(=O)N2CCN(C(=O)CSC3CCCC3)CC2)c(C)c1", "Reported endpoint": "inhibition", "Reported": 0}
{"Compound": "O=C(NC1CCCCC1)n1c(=O)oc2ccc(Cl)cc21", "Reported endpoint": "inhibition", "Reported": 5}
{"Compound": "Cc1ccc(C(=O)N2CCCC(c3nc4c(nnn4Cc4ccccc4)c(=O)[nH]3)C2)cc1 (centres undefined)", "Reported endpoint": "inhibition", "Reported": 1}
{"Compound": "COCCn1nnnc1CN(Cc1cccnc1)Cc1cc2cc(OC)ccc2[nH]c1=O", "Reported endpoint": "inhibition", "Reported": 6}
{"Compound": "O=C1CCCC2=C1C(c1cccc(Br)c1)n1nc(-c3ccco3)nc1N2 (centres undefined)", "Reported endpoint": "inhibition", "Reported": 0}
{"Compound": "CCc1nc2sc3c(c2c(=O)o1)CCCC3", "Reported endpoint": "inhibition", "Reported": 0}
{"Compound": "COc1ccc(N2CCN(C(=O)C(OC(C)=O)c3ccccc3)CC2)cc1 (centres undefined)", "Reported endpoint": "inhibition", "Reported": 3}
{"Compound": "c1ccc(C2CC3CC(c4ccco4)N2O3)cc1 (centres undefined)", "Reported endpoint": "inhibition", "Reported": 0}
{"Compound": "Nc1c(C(=O)NCc2ccco2)nnn1Cc1ccccc1", "Reported endpoint": "inhibition", "Reported": 2}
{"Compound": "O=C(NC1CCCCC1)C(c1ccccc1)N(Cc1ccco1)C(=O)Cn1cnc2ccccc21 (centres undefined)", "Reported endpoint": "inhibition", "Reported": 0}
{"Compound": "COc1cccc(-c2nnc(NC(=O)c3ccccc3Br)o2)c1", "Reported endpoint": "inhibition", "Reported": 0}
{"Compound": "CCn1c(SCC(=O)Nc2cccc(C)c2)nc2c(c1=O)SC(C)C2 (centres undefined)", "Reported endpoint": "inhibition", "Reported": 1}
{"Compound": "C=CCSc1nnc2n(-c3ccccc3OC)c(=O)c3c4c(sc3n12)CCC4", "Reported endpoint": "inhibition", "Reported": 0}
{"Compound": "Cc1ccc(N2CC(C(=O)Nc3nnc(C)s3)CC2=O)cc1 (centres undefined)", "Reported endpoint": "inhibition", "Reported": 6}
{"Compound": "Cc1cc(C(=O)Cn2cncn2)c(C)n1CCc1ccc(F)cc1", "Reported endpoint": "inhibition", "Reported": 1}
{"Compound": "CCCCN(CCCNC(=O)C1CCN(S(=O)(=O)CC)CC1)c1ccccc1", "Reported endpoint": "inhibition", "Reported": 0}
{"Compound": "O=C1CSC(c2cn(-c3ccccc3)nc2-c2cccs2)N1CC1CCCO1 (centres undefined)", "Reported endpoint": "inhibition", "Reported": 2}
{"Compound": "CC(C)COC(=O)N(C)c1ccc(C(O)(C(F)(F)F)C(F)(F)F)cc1", "Reported endpoint": "inhibition", "Reported": 5}
